These data points were gathered from ChEMBL document CHEMBL1155863.

- measurement.description: Solubility of compound at pH 7.4
- Type: physicochemical
- cond: buffer
Measured solubility values are reported for all entries that follow.
A number alone suffices; assume µM.

{"columns": ["input.smiles", "solubility [µM]"],
 "data": [
  ["CC1(C)CNC(=O)c2sc(N3CCOC[C@@H]3Cc3c[nH]c4ccccc34)nc2C1", 642]
]}

Now for the compound whose solubility we want.
Query: Return reported solubility; argument: CC1(C)CC(=O)c2sc(N3CCOC[C@@H]3Cc3c[nH]c4ccccc34)nc2C1
Response: 201

====

Measured pIC50 values are reported for all entries that follow.
- measurement.description: Antiproliferative activity against human U87-MG cells
- Type: functional, cell-based, U-87MG ATCC
- cond: U-87 MG
By convention, pIC50 is the negative base-10 log of a molar concentration.

{"columns": ["input.smiles", "reported.value"],
 "data": [
  ["CC1(C)CNC(=O)c2sc(N3CCOC[C@@H]3Cc3c[nH]c4ccccc34)nc2C1", 5.46],
  ["CC1(C)CC(=O)c2sc(N3CCOCC3)nc2C1", 4.96]
]}

Query: Return reported pIC50; argument: CC1(C)CC(=O)c2sc(N3CCOC[C@@H]3Cc3c[nH]c4ccccc34)nc2C1
Response: 6.10

====

- measurement.description: Cmax in nude mouse at 30 mg/kg, po after 1 hr
- Assay type: ADME, organism-based
- Design: dose 30 mg/kg, route oral
- cond: in vivo
reported.metric: Cmax (ng/mL)
A number alone suffices; assume ng/mL.

Query: Return reported Cmax; argument: CC1(C)CNC(=O)c2sc(N3CCOC[C@@H]3Cc3c[nH]c4ccccc34)nc2C1
Response: 1460

====

- target.entity: Phosphatidylinositol 4,5-bisphosphate 3-kinase catalytic subunit alpha isoform (Homo sapiens, UniProt P42336)
- Sequence (P42336 whole entry, canonical isoform): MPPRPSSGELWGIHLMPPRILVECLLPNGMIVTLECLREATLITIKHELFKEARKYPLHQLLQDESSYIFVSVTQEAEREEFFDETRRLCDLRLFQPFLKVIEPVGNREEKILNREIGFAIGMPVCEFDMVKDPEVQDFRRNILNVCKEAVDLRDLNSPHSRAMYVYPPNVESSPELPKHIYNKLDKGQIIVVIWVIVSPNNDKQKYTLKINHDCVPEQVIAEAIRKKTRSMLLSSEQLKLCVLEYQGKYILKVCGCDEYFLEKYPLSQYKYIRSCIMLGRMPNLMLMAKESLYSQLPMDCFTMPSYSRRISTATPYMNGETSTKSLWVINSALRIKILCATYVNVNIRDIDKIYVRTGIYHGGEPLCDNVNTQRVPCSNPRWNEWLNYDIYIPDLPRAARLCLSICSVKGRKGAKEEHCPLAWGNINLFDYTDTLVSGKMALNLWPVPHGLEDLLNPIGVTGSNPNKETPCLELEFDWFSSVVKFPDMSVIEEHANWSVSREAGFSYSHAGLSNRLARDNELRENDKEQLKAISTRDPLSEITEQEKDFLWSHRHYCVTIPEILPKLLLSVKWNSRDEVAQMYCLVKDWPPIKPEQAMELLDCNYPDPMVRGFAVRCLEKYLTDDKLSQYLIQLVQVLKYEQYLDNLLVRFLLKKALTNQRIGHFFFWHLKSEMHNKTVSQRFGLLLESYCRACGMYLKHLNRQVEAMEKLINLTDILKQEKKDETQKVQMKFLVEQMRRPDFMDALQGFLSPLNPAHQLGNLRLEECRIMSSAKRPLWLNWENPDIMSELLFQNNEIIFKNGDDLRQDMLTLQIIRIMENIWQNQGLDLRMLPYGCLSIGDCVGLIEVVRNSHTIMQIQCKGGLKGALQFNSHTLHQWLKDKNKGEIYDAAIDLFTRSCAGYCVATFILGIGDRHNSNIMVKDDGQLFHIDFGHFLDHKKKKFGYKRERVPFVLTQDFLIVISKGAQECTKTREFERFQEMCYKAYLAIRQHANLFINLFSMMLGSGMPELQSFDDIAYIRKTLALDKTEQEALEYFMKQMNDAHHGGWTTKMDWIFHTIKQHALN
- measurement.description: Inhibition of PI3Kalpha
reported.metric: pIC50
By convention, pIC50 is the negative base-10 log of a molar concentration.

Answered cases to consult:
{"columns": ["molecule", "reported.metric", "reported.value"],
 "data": [
  ["CC1(C)CC(=O)c2sc(N3CCOC[C@@H]3Cc3ccccc3)nc2C1", "pIC50", 6.08],
  ["CCCC1CC(=O)c2sc(N3CCOCC3)nc2C1 (racemic)", "pIC50", 5.08],
  ["CC1(C)CC(=O)c2sc(N3CCOC[C@H]3Cc3c[nH]c4ccccc34)nc2C1", "pIC50", 5.59],
  ["CC1(C)CC(=O)c2sc(N3CCOCC3Cc3ccc4ccccc4c3)nc2C1 (stereo not given)", "pIC50", 5.46],
  ["O=C1CC(c2ccccc2)Cc2nc(N3CCOCC3)sc21 (racemic)", "pIC50", 4.62]
]}

Query: Return reported pIC50; argument: CC1(C)CC(=O)c2sc(N3CCOC[C@H]3Cc3ccccc3)nc2C1
Response: 4.70

Query: Would you kindly repeat that for CC1CC(=O)c2sc(N3CCOCC3)nc2C1 (racemic) ?
Response: 5.60

Query: Would you kindly repeat that for CC1(C)CC(=O)c2sc(-c3ccncc3)nc2C1 ?
Response: 4.69

Query: Would you kindly repeat that for CC1(C)CC(=O)c2sc(N3CCOCC3Cc3cccc4ccccc34)nc2C1 (stereo not given) ?
Response: 6.64

Query: Would you kindly repeat that for O=C1CCCc2nc(N3CCOCC3)sc21 ?
Response: 5.09

Query: Would you kindly repeat that for O=C1CC2(CCCC2)Cc2nc(N3CCOCC3)sc21 ?
Response: 5.61

Query: Would you kindly repeat that for CC1(C)CNC(=O)c2sc(N3CCOC[C@@H]3Cc3c[nH]c4ccccc34)nc2C1 ?
Response: 7.23

====

- target.entity: Phosphatidylinositol 4,5-bisphosphate 3-kinase catalytic subunit gamma isoform (Homo sapiens)
- measurement.description: Inhibition of PI3Kgamma
Measured IC50 values are reported for all entries that follow.
A number alone suffices; assume µM.

Answered cases to consult:
{"columns": ["compound", "reported.value"],
 "data": [
  ["CC1(C)CC(=O)c2sc(N3CCOCC3Cc3c[nH]c4ncccc34)nc2C1 (stereo not given)", 0.063],
  ["CC1CC(=O)c2sc(N3CCOCC3)nc2C1 (racemic)", 16.7],
  ["CC1(C)CC(=O)c2sc(N3CCOC[C@@H]3Cc3ccccc3)nc2C1", 2.08]
]}

Query: Return reported IC50; argument: O=C1CCCc2nc(N3CCOCC3)sc21
Response: 16.7

Query: Would you kindly repeat that for O=C1CC2(CCCC2)Cc2nc(N3CCOCC3)sc21 ?
Response: 16.1

Query: Would you kindly repeat that for CC1(C)CNC(=O)c2sc(N3CCOC[C@@H]3Cc3c[nH]c4ccccc34)nc2C1 ?
Response: 0.031

Query: Would you kindly repeat that for CC1(C)CC(=O)c2sc(-c3ccncc3)nc2C1 ?
Response: 35.7

Query: Would you kindly repeat that for CC1(C)CC(=O)c2sc(N3CCOC[C@@H]3Cc3csc4ccccc34)nc2C1 ?
Response: 0.223

Query: Would you kindly repeat that for CC1(C)CC(=O)c2sc(N3CCOC[C@H]3Cc3c[nH]c4ccccc34)nc2C1 ?
Response: 3.51

Query: Would you kindly repeat that for CC1(C)CC(=O)c2sc(N3CCOC[C@@H]3Cc3c[nH]c4ccccc34)nc2C1 ?
Response: 0.049

Query: Would you kindly repeat that for CCCC1CC(=O)c2sc(N3CCOCC3)nc2C1 (racemic) ?
Response: 19.8

Query: Would you kindly repeat that for O=C1CC2(CCCCC2)Cc2nc(N3CCOCC3)sc21 ?
Response: 6.26

Query: Would you kindly repeat that for CC1(C)CC(=O)c2sc(N3CCOCC3Cc3cccc4ccccc34)nc2C1 (stereo not given) ?
Response: 0.386

Query: Would you kindly repeat that for CC1(C)CC(=O)c2sc(N3CCOCC3Cc3ccc4ccccc4c3)nc2C1 (stereo not given) ?
Response: 1.67

====

- Tested on: MCF7
- measurement.description: Antiproliferative activity against human MCF7 cells
- Type: functional, cell-based
reported.metric: IC50 (µM)
A number alone suffices; assume µM.

{"columns": ["input.smiles", "reported.metric", "reported.value"],
 "data": [
  ["CC1(C)CNC(=O)c2sc(N3CCOC[C@@H]3Cc3c[nH]c4ccccc34)nc2C1", "IC50", 0.862]
]}

Query: Return reported IC50; argument: CC1(C)CC(=O)c2sc(N3CCOC[C@@H]3Cc3c[nH]c4ccccc34)nc2C1
Response: 1.26

====

- target.entity: Phosphatidylinositol 4,5-bisphosphate 3-kinase catalytic subunit delta isoform (Homo sapiens, UniProt O00329)
- Sequence (O00329 whole entry, canonical isoform): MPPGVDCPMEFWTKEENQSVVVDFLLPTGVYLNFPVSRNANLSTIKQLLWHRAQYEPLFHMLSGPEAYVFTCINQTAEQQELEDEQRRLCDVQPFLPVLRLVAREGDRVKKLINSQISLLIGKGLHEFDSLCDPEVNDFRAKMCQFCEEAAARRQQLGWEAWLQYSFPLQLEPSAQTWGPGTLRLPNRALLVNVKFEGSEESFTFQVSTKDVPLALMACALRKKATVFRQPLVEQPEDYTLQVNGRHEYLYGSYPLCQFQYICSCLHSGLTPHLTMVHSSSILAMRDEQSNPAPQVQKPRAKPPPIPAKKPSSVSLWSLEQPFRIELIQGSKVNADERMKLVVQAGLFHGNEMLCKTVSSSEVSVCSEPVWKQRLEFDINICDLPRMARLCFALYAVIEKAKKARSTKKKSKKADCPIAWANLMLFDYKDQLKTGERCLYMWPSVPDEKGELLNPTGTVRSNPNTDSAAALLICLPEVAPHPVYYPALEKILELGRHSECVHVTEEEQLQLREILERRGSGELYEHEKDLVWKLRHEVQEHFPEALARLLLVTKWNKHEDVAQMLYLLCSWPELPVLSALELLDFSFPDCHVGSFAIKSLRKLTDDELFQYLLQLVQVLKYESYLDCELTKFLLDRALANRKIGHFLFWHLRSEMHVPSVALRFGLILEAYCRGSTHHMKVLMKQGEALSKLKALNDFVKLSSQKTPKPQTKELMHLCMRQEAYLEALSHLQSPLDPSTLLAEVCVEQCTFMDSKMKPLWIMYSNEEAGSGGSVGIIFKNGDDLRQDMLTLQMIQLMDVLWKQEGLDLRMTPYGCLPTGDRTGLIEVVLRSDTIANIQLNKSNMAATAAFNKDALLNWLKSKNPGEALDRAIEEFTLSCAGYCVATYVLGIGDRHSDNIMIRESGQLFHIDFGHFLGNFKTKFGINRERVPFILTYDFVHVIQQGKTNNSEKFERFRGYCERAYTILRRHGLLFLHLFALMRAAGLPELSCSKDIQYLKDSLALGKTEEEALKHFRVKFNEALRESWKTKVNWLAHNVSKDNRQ
- measurement.description: Inhibition of PI3Kdelta
reported.metric: pIC50
By convention, pIC50 is the negative base-10 log of a molar concentration.

Answered cases to consult:
{"columns": ["compound", "reported.metric", "reported.value"],
 "data": [
  ["CC1CC(=O)c2sc(N3CCOCC3)nc2C1 (racemic)", "pIC50", 5.22],
  ["CC1(C)CC(=O)c2sc(N3CCOC[C@H]3Cc3c[nH]c4ccccc34)nc2C1", "pIC50", 5.60],
  ["O=C1CC2(CCCCC2)Cc2nc(N3CCOCC3)sc21", "pIC50", 5.93],
  ["CC1(C)CNC(=O)c2sc(N3CCOC[C@@H]3Cc3c[nH]c4ccccc34)nc2C1", "pIC50", 7.74],
  ["CC1(C)CC(=O)c2sc(N3CCOCC3Cc3cccc4ccccc34)nc2C1 (stereo not given)", "pIC50", 6.90]
]}

Query: Return reported pIC50; argument: O=C1CC(c2ccccc2)Cc2nc(N3CCOCC3)sc21 (racemic)
Response: 4.50

Query: Would you kindly repeat that for O=C1CC2(CCCC2)Cc2nc(N3CCOCC3)sc21 ?
Response: 5.83

====

- target.entity: Phosphatidylinositol 4,5-bisphosphate 3-kinase catalytic subunit alpha isoform (Homo sapiens)
- measurement.description: Inhibition of PI3Kalpha
reported.metric: IC50

Answered cases to consult:
{"columns": ["compound", "IC50"],
 "data": [
  ["COCCNc1nc2c(s1)C(=O)CC(C)(C)C2", "> 40000 nM"],
  ["CC1(C)CC(=O)c2sc(N3CCOC[C@@H]3c3ccccc3)nc2C1", "> 50000 nM"],
  ["CC1(C)CC(=O)c2sc(N3CCCCC3)nc2C1", "> 40000 nM"],
  ["CC1(C)CC(=O)c2sc(N3CCOC[C@H]3c3ccccc3)nc2C1", "> 50000 nM"]
]}

Now for the compound whose IC50 we want.
Query: Return reported IC50; argument: CC1(C)CC(=O)c2sc(N3CCOC[C@@H]3Cc3csc4ccccc34)nc2C1
Response: 125 nM

====

Measured IC50 values are reported for all entries that follow.
- target.entity: Phosphatidylinositol 4,5-bisphosphate 3-kinase catalytic subunit gamma isoform (Homo sapiens, UniProt P48736)
- Sequence (P48736 whole entry, canonical isoform): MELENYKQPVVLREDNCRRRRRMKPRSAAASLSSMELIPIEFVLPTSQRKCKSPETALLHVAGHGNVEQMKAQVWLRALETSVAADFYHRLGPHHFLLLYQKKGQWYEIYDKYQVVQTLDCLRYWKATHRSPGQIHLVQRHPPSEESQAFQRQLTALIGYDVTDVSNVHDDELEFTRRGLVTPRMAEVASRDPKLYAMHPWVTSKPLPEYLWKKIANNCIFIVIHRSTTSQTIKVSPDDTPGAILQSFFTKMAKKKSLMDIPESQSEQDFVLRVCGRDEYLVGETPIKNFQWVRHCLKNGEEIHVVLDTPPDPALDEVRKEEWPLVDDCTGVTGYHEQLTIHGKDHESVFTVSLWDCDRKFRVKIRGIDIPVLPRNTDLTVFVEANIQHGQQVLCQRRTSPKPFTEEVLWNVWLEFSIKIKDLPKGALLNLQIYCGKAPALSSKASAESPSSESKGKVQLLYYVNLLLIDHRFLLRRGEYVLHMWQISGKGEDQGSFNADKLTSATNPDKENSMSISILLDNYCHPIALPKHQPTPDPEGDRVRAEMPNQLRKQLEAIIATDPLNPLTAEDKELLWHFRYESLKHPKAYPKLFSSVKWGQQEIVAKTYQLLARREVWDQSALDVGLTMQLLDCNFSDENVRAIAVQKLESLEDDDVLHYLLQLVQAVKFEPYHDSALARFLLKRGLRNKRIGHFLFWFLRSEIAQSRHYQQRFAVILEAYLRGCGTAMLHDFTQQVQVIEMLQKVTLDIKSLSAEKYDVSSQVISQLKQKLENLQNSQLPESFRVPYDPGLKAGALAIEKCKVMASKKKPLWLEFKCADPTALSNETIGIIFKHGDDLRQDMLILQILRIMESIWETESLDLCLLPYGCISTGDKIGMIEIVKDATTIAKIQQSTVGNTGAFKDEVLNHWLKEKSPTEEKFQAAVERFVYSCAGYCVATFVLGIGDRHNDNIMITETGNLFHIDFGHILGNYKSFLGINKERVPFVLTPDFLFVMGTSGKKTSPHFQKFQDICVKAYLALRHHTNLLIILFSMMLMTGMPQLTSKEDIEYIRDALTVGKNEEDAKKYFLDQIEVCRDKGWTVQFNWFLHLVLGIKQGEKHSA
- measurement.description: Inhibition of PI3Kgamma

Answered cases to consult:
{"columns": ["molecule", "reported.value"],
 "data": [
  ["CC1(C)CC(=O)c2sc(N3CCCCC3)nc2C1", "> 40 µM"],
  ["CC1(C)CC(=O)c2sc(N3CCOC[C@@H]3c3ccccc3)nc2C1", "> 50 µM"],
  ["COCCNc1nc2c(s1)C(=O)CC(C)(C)C2", "> 40 µM"]
]}

Query: Return reported IC50; argument: O=C1CC(c2ccccc2)Cc2nc(N3CCOCC3)sc21 (racemic)
Response: > 40 µM

Query: Would you kindly repeat that for CC1(C)CC(=O)c2sc(N3CCOC[C@H]3Cc3ccccc3)nc2C1 ?
Response: > 50 µM

Query: Would you kindly repeat that for CC1(C)CC(=O)c2sc(N3CCOC[C@H]3c3ccccc3)nc2C1 ?
Response: > 50 µM
